experiment: self-splicing fitness, log relative to wild type (ln ratio); higher = more splicing; Tetrahymena group I intron in knt gene, E. coli kanamycin selection, DiMSum; sequences stand for … in CUCUCU…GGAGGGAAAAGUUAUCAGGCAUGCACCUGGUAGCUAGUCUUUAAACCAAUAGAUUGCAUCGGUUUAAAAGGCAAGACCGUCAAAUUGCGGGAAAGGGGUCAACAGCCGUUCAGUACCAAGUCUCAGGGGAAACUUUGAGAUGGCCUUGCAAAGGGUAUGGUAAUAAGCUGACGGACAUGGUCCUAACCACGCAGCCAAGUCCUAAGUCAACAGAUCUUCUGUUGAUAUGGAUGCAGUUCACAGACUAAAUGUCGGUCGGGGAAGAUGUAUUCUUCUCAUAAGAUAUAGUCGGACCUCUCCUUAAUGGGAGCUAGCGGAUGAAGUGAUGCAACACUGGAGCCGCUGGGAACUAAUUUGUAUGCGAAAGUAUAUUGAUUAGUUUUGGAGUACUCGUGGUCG; details: 37 °C;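 note: selection with 25 µg/mL kanamycin versus none on LB agar overnight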
Listed next: entries and their corresponding self-splicing fitness (ln).
outcome.measure: self-splicing fitness (ln)

chain: GAUCAGCAAUAUUACGAUUU
obs.value: 0.0945

chain: AUGCAGCAAUAUUACGCGCA
obs.value: -1.39

chain: ACGUAGCAAUAUUACGCUUU
obs.value: -1.11

chain: AGUAAGCAAUAUUACGGCGC
obs.value: -0.433

chain: CGAGAGCAAUAUUACGGCAA
obs.value: -2.79

chain: ACCAAGCAAUAUUACGUACU
obs.value: -0.135

chain: CGGCAGCAAUAUUACGCAGG
obs.value: -1.33

chain: CGCCAGCAAUAUUACGCGGA
obs.value: -1.99

----------
test: self-splicing fitness, log relative to wild type (ln ratio); higher = more splicing; Tetrahymena group I intron in knt gene, E. coli kanamycin selection, DiMSum; sequences stand for … in CUCUCU…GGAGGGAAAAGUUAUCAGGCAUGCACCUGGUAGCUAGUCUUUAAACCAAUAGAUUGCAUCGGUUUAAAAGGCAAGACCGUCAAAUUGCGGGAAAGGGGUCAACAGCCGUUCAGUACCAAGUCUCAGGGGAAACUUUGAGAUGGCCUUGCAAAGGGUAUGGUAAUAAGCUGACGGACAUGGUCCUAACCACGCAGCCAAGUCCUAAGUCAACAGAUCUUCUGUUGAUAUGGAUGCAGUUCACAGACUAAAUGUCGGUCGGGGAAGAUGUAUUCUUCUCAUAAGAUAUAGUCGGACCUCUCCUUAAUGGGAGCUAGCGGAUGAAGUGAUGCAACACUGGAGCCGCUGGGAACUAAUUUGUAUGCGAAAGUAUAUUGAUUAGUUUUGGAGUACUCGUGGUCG; details: 37 °C
// bucketize self-splicing fitness (ln): low (below -2), intermediate (-2 to below -0.8), high (-0.8 or more)

chain: CCUGAGCAAUAUUACGGAAU
assigned.category: low
//
chain: CGGCAGCAAUAUUACGUACG
assigned.category: intermediate
//
chain: GUCUAGCAAUAUUACGUGUU
assigned.category: high
//
chain: UGGUAGCAAUAUUACGGUAA
assigned.category: high
//
chain: CGUCAGCAAUAUUACGCAAA
assigned.category: intermediate
//
chain: CCGGAGCAAUAUUACGUGAU
assigned.category: intermediate
//
chain: CUGAAGCAAUAUUACGGGUU
assigned.category: low
//
chain: GCUUAGCAAUAUUACGAUAC
assigned.category: high
//
chain: UAUCAGCAAUAUUACGCACU
assigned.category: high
//
chain: GAUUAGCAAUAUUACGAACA
assigned.category: high
//
chain: UGCAAGCAAUAUUACGGCGG
assigned.category: high
//
chain: GACUAGCAAUAUUACGCGUA
assigned.category: high
//
chain: CUGGAGCAAUAUUACGUGAU
assigned.category: intermediate
//
chain: ACGCAGCAAUAUUACGGUUC
assigned.category: intermediate
//
chain: GCUUAGCAAUAUUACGAUGU
assigned.category: high
//
chain: GGUGAGCAAUAUUACGGCGG
assigned.category: intermediate
//
chain: CACAAGCAAUAUUACGCUGA
assigned.category: intermediate
//
chain: UUGUAGCAAUAUUACGGACG
assigned.category: high
//
chain: GGUAAGCAAUAUUACGAGGA
assigned.category: intermediate
//
chain: ACGAAGCAAUAUUACGGCAA
assigned.category: high
//
chain: UCCAAGCAAUAUUACGCCUC
assigned.category: low
//
chain: AUCCAGCAAUAUUACGUGGC
assigned.category: low
//
chain: ACAUAGCAAUAUUACGAAGC
assigned.category: intermediate
//
chain: GCCGAGCAAUAUUACGAUAC
assigned.category: intermediate
//
chain: AAAGAGCAAUAUUACGAACC
assigned.category: intermediate
//
chain: UCUCAGCAAUAUUACGCAUC
assigned.category: low
//
chain: AUAUAGCAAUAUUACGCACG
assigned.category: high
//
chain: CACAAGCAAUAUUACGGUUA
assigned.category: intermediate
//
chain: CGCAAGCAAUAUUACGGCCC
assigned.category: intermediate

This collection of values is drawn from the supplement of paper PMC7877785.
